# System: test plant species
# methodNotes: Post-emergent herbicidal activity test (greenhouse, foliar spray, visual growth reduction)
# Format: in vivo
# settings: post-emergence, 336 h, lambsquarters (Chenopodium album), 14 Days After Application, 140 g ai/ha, read-out: Visual Growth Reduction (%) CHEAL
valueKind: pest or weed control at 140 g/ha

[[record]]
querysmiles = "COC(=O)c1nc(-c2cccc(F)c2OC)c(F)cc1Cl"
obsvalue = "75 to 84%"

[[record]]
querysmiles = "COC(=O)c1nc(-c2ccc(C3(C#N)CC3)cc2Cl)ccc1Cl"
obsvalue = "85 to 94%"

[[record]]
querysmiles = "COC(=O)c1nc(-c2ccc3c(c2)C(F)(F)OC(F)(F)O3)ccc1Cl"
obsvalue = "0 to 29%"

[[record]]
querysmiles = "COC(=O)c1nc(-c2ccc3ccsc3c2F)ccc1Cl"
obsvalue = "0 to 29%"

[[record]]
querysmiles = "COc1cc(C(F)(F)F)ccc1-c1nc(C(=O)OCc2ccccc2)c(Cl)cc1F"
obsvalue = "95 to 100%"

